Cited source: ChEMBL document CHEMBL3988442

Catalogue of Percent Effect readings, one per entry.
- Tested on: Leishmania donovani
- ASSAY OVERVIEW: Leishmania intramacrophage assay
- Type: functional, organism-based
- Set-up: scale not given: in the data most compounds retested in dose-response had high values
- CONDITION INFO: 30.3 µM; […]
The campaign covered roughly 69,000 compounds. About 1,000 (1.4%) showed an effect of 50% or more. For the sample, strong results were picked, then their nearest neighbours and some compounds at random.
ENDPOINT LABEL: Percent Effect (%)

molecule="OC(CNCCn1cccn1)COc1ccc(F)cc1 (stereo not given)" test_result=20.47
molecule=COc1cc(OC)c(-c2nc3c([nH]2)c(C2CC2)nn3C)cc1OC test_result=40.91
molecule=O=C(CN1CCOCS1(=O)=O)NCc1ccccc1 test_result=-15.82
molecule="O=C1CC(c2cccnc2)c2c(c(C(=O)O)cn2-c2ccc(Cl)cc2)N1 (stereo not given)" test_result=19.15
molecule="CN(C)C(CNC(=O)c1ccc(-n2cnnn2)cc1)c1ccccc1Cl (stereo not given)" test_result=52.55
molecule=CSc1ccc(CNC2CCN(CCc3ccncc3)CC2)cc1 test_result=85.89
molecule=CSCC[C@H](NC(C)=O)c1nc(CCc2ccccc2)n[nH]1 test_result=10.23
molecule=Cc1ccc(C(=O)N2CCOC3(CCCC3)C2)c(=O)[nH]1 test_result=4.345
molecule="CCC(C)N(Cc1cccnc1)Cc1cc2c(cc1Cl)OCO2 (stereo not given)" test_result=69.06
molecule="CNC(=O)c1cccc(CN2CCC(N(C)Cc3noc(C)n3)C2)c1 (stereo not given)" test_result=-22.53
molecule=Cc1cccc2c1nc(CCO)n2-c1ccc(C(=O)N2CCOCC2)o1 test_result=26.23
molecule=CNC(=O)CN([C@H]1C[C@H]2CCOC[C@H]2C1)S(=O)(=O)c1ccccc1 test_result=-15.54
molecule=Cc1ccc(C(=O)N2CCC3(CCCCC3)C2)c(=O)[nH]1 test_result=56.07
molecule=N#Cc1ccc(CNC2CCN(CCc3ccncc3)CC2)cc1 test_result=19.38
molecule=Cc1ccc(C(=O)N2CCC3(CCCC3)CC2)c(=O)[nH]1 test_result=27.16
molecule=Cn1cccc1C(=O)NCc1cn2c(n1)CN(Cc1cccnc1)CC2.O=C(O)C(F)(F)F.O=C(O)C(F)(F)F test_result=5.106
molecule="O=C(O)C(F)(F)F.c1cc(CN2CCC3(CCOCC3COCC3CC3)CC2)co1 (stereo not given)" test_result=12
molecule=c1cc(CCN2CCC(NCc3ccsc3)CC2)ccn1 test_result=31.06
molecule=N#Cc1ccc(N2CCC3(CC2)COCCN3Cc2cccnc2)cc1.O=C(O)C(F)(F)F test_result=-0.3912
molecule="CCC(C)c1csc(NC(=O)c2sc(-c3nnc[nH]3)nc2C)n1 (stereo not given)" test_result=32.74
molecule="Cc1cnc(N2CCC3(CC2)CC(NC(=O)N(C)C)CO3)nc1 (stereo not given)" test_result=5.267
molecule=Cc1ccc(SCCCNC(=O)c2cn([C@H]3CC[C@@H](N)CC3)nn2)cc1 test_result=94.34
molecule="OC(CNCCn1cccn1)COc1ccc2ccccc2c1 (stereo not given)" test_result=56.8
molecule="CCC(C)c1csc(NC(=O)Cc2csc(-c3nnc[nH]3)n2)n1 (stereo not given)" test_result=56.95
molecule=O=C(CSC1=NS(=O)(=O)c2cc(F)ccc2N1)Nc1ccc(Cl)cc1 test_result=3.738
